Percent Effect: recorded values
target: Chromo domain-containing protein 1 (Saccharomyces cerevisiae (strain ATCC 204508 / S288c) (Baker's yeast)); assay: ScCHD-1 Enzyme Inhibition Assay; format: functional; design: scale not given: in the data most compounds retested in dose-response had high values; conditions: 30 µM

{"compound": "Cn1cnc2c1CCN(Cc1noc(-c3ccccc3)n1)C2", "Percent Effect, %": 0.774}
{"compound": "CC(C)c1noc(CN2CCC3(CCCO3)CCC2=O)n1 (stereo not drawn)", "Percent Effect, %": -6.74}
{"compound": "CC(Cn1ccnc1)NC(=O)NCCc1ccc2c(c1)OCCO2 (stereo not drawn)", "Percent Effect, %": -8.39}
{"compound": "COCCN1CCCC1c1nccnc1Nc1nc(C)cs1 (stereo not drawn)", "Percent Effect, %": -24.9}
{"compound": "CC(C)(C)c1n[nH]c(C2CN(C(=O)CCc3cscn3)CCO2)n1 (stereo not drawn)", "Percent Effect, %": -1.16}
{"compound": "CC(C(=O)N1CCCN(c2ccc(C#N)cc2)CC1)n1ccnc1 (stereo not drawn)", "Percent Effect, %": -17.9}
{"compound": "Cc1nccn1-c1cccc(C2CCCN(C3CCCCC3)C2)n1 (stereo not drawn)", "Percent Effect, %": -10.9}
{"compound": "Cc1ccc(C(=O)N2CCC3(CC2)COC(COc2ccccn2)C3)o1 (stereo not drawn)", "Percent Effect, %": 18.6}
{"compound": "CCn1cc2c(n1)C(COC)CN(Cc1ccccn1)C2 (stereo not drawn)", "Percent Effect, %": -3.98}
{"compound": "CC(C)c1nn(C)c(N(C)C)c1CNCCC(=O)N(C)C", "Percent Effect, %": 0.33}
{"compound": "Cc1cc(C)n(CC2CCCN2CCCS(N)(=O)=O)n1 (stereo not drawn)", "Percent Effect, %": -2.57}
{"compound": "Cc1ccc(-c2nc(CCNC(=O)CCN3CCOC3=O)co2)cc1", "Percent Effect, %": -8.83}
{"compound": "Cc1ccc2cc(C3(O)CCN(C(=O)CN4CCCC4)CC3)ccc2n1", "Percent Effect, %": 0.856}
{"compound": "CCCN(C(=O)c1ccccn1)c1nc2c(s1)CCc1c-2cnn1C", "Percent Effect, %": -6.45}
{"compound": "CCc1nnc2n1CCN(Cc1nc(-c3ccoc3)no1)C2", "Percent Effect, %": -4.51}
{"compound": "O=C1CC(c2ccsc2)c2sc(C(=O)O)c(-c3ccccc3)c2N1 (stereo not drawn)", "Percent Effect, %": 33.2}
{"compound": "Cc1ccc(CNC(=O)NCCCn2nc3ccccn3c2=O)s1", "Percent Effect, %": -16.6}
{"compound": "CC(NC1(CNC(=O)Cn2cccn2)CCOCC1)c1ccccc1 (stereo not drawn)", "Percent Effect, %": -5.87}
{"compound": "Cn1ccc(C(=O)N2CCC(Cc3cnc4[nH]ccc4c3)CC2)n1", "Percent Effect, %": -4.7}
{"compound": "O=S(=O)(C1CC1)N1CCC2(CC1)CC(Oc1cccnc1)CO2 (stereo not drawn)", "Percent Effect, %": -0.139}
{"compound": "Cn1ccnc1C(NCc1csc(Br)c1)c1ccccc1 (stereo not drawn)", "Percent Effect, %": -7.11}
{"compound": "COC(=O)Cn1c(=O)nc2n1C(=O)N(c1ccc(Cl)cc1)C2", "Percent Effect, %": -2.66}
{"compound": "N#Cc1cc(NC(=O)c2ccsc2)ccc1N1CCC(O)CC1", "Percent Effect, %": -1.54}
{"compound": "Cc1ccc(N2CCCN(C(=O)c3c(C)oc(C)c3C)CC2)nn1", "Percent Effect, %": -6.9}
{"compound": "O=C(c1ccc(NC2CC2)nc1)N1CCCC(n2cccn2)C1 (stereo not drawn)", "Percent Effect, %": -0.025}
{"compound": "CN1CCOC(CNC(=O)CCCOc2ccccc2F)C1 (stereo not drawn)", "Percent Effect, %": -4.86}
{"compound": "O=C(CCc1cscn1)N1CCCC(n2ccnc2)C1 (stereo not drawn)", "Percent Effect, %": -12.3}
{"compound": "CCOc1cc(CNC(=O)N2CCC(Cc3cnn(C)c3)C2)ccn1 (stereo not drawn)", "Percent Effect, %": -0.605}
{"compound": "O=C(CC1CC1)N1CCn2cc(Cn3cncn3)nc2C1", "Percent Effect, %": -6.64}
{"compound": "CCN1CCC2(CCC(=O)N2Cc2cccc(C)n2)CC1", "Percent Effect, %": -11.3}
{"compound": "Cc1ccc(N(C)C2CCN(C(=O)c3ccsc3)CC2)nn1", "Percent Effect, %": -7.83}
{"compound": "CCNC(=O)c1ccc(CNCc2c(C)nn(C)c2N(C)C)cc1", "Percent Effect, %": -11.6}
{"compound": "Cc1nc(N2CCOCC2)nc2c1CCN(C(=O)NC1CCCC1)CC2", "Percent Effect, %": -10.6}
{"compound": "COC(=O)c1ccc(S(=O)(=O)NCc2cccnc2N(C)C)cc1", "Percent Effect, %": -6.7}
{"compound": "O=C1C(NCc2nnc3n2CCCC3)CCN1CC(F)(F)F (stereo not drawn)", "Percent Effect, %": -0.359}
{"compound": "CN(Cc1ccc(F)cc1)C(=O)NCC1(N2CCOCC2)CCSC1 (stereo not drawn)", "Percent Effect, %": -8.64}
{"compound": "Cn1cnc2c1C(COCC1CC1)CN(C(=O)Cc1ccsc1)C2 (stereo not drawn)", "Percent Effect, %": 84.8}
{"compound": "Cc1nc(C)n(CC2CCCN2Cc2cscn2)n1 (stereo not drawn)", "Percent Effect, %": -13.6}
{"compound": "CCn1cc(CN2CCCN(C(=O)C3=NN(C)C(=O)CC3)CC2)cn1", "Percent Effect, %": -17.5}
{"compound": "O=C1[C@H]2CN(c3ncccn3)C[C@H]2CN1Cc1ccncc1", "Percent Effect, %": -3.35}
{"compound": "CO[C@H]1CCN(c2ncccn2)[C@H]1Cc1ccccc1", "Percent Effect, %": -1.72}
{"compound": "CC(Cn1cccn1)NC(=O)NCc1cccs1 (stereo not drawn)", "Percent Effect, %": -11.3}
{"compound": "O=C(O)c1ccc2ccc(N3CCN(CC4CC4)CC3)n2c1", "Percent Effect, %": -4.22}
{"compound": "CN(C)S(=O)(=O)N1CC[C@]2(C[C@H](Oc3cccnc3)CO2)C1", "Percent Effect, %": -4.29}
{"compound": "O=C(CSC1=NS(=O)(=O)c2cc(F)ccc2N1)Nc1cccc(Cl)c1", "Percent Effect, %": -11.3}
{"compound": "Cn1cc(CN2CCOCC3(C2)CN(c2ccccc2)C(=O)CO3)cn1 (stereo not drawn)", "Percent Effect, %": -1.15}
{"compound": "CC(=O)N1CC(=O)N(c2ccccc2)CC12CCN(CC1CC1)C2 (stereo not drawn)", "Percent Effect, %": -0.48}
{"compound": "Cc1ncsc1C(=O)NC1CCN(Cc2ccc(C#N)cc2)CC1", "Percent Effect, %": -7.46}
